# METHOD DESCRIPTION: In vivo localization (biodistribution) in athymic female nude mice bearing subcutaneous MCF-7 tumor xenografts
# Design: species or system athymic female NCR-Nu Mice
# CONDITIONS: mouse, uterus, sc; Uteri, 6 hours, tail vein, subcutaneous MCF-7, mean, n = 5; read-out: Percent Injected Dose/Gram, uteri
READOUT NAME: tissue uptake at 6 h
Express your answer as a number followed by its unit.

input: Find the recorded tissue uptake at 6 h belonging to CC[C@H]1C[C@@]2(C)[C@@H](CC[C@@]2(O)/C=C\[125I])[C@@H]2CCc3cc(O)ccc3[C@@H]12 [Compound 5] and report it.
output: 4.4 %ID/g
